B1: glmS ribozyme (parent)
chain: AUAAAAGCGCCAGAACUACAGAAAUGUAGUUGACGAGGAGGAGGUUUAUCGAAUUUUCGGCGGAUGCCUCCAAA

Variants of: B1
measurement-protocol: self-cleavage kobs at 160 uM GlcN6P; higher = faster cleavage; RNA array
settings: with glucosamine-6-phosphate
Variants at the floor of the assay were thinned out.
observed-property: self-cleavage kobs at 160 uM GlcN6P

Check out these entries, answers already filled in.
G32C G63U = < 1e-05 s⁻¹
A33C G40C = < 1e-05 s⁻¹
A53G C58A = 5.7e-05 s⁻¹
G44U A53C C58U C71U = < 1e-05 s⁻¹

Qu. Value lookup for self-cleavage kobs at 160 uM GlcN6P; key = A39G A42U
Ans. 7.49e-05 s⁻¹

Qu. Which value of self-cleavage kobs at 160 uM GlcN6P has been reported for A42U G60U in the records?
Ans. < 1e-05 s⁻¹

Qu. What value of self-cleavage kobs at 160 uM GlcN6P has been recorded for this entry: U46A C58U
Ans. < 1e-05 s⁻¹

Qu. Param item = G40U U47G ; retrieve measured self-cleavage kobs at 160 uM GlcN6P.
Ans. 0.000115 s⁻¹
